The reported numbers originate from patent US10517889B2.

Tested on: human SMAD7 mRNA
TEST PROTOCOL: Antisense inhibition of human SMAD7 mRNA expression in Hep3B cells by 3-10-3 cEt gapmers, 10,000 nM, electroporation (Example 2)
Format: cell-based
CONDITION SUMMARY: Hep3B cells, electroporation with 10,000 nM antisense oligonucleotide, approximately 24 hours, SMAD7 mRNA by RT-PCR (RTS5062), relative to untreated control cells
Strand notation (5' to 3'): a small letter for the sugar, then the base; units joined by * are phosphorothioate-linked, units joined directly phosphodiester-linked; [ ] holds rarer units or linkages, { } end groups; capitals alone tell only the bases. k = constrained ethyl (cEt); [5mC] = 5-methylcytosine; d = 2'-deoxy (DNA)
# % Inhibition per record follows
Form entry: value (%) — number only.

These recorded examples may help you get a feel for the data.
                                  substance  property_label  reading
0  798699 (antisense k[5mC]*kG*k[5mC]*dA*dG*d[5mC]*dT*d[5mC]*dG*d[5mC]*d[5mC]*dT*d[5mC]*k[5mC]*kT*k[5mC]) [compound 798699]    % Inhibition       51
1  799927 (antisense kT*k[5mC]*k[5mC]*d[5mC]*dA*dA*dG*d[5mC]*d[5mC]*dT*dA*d[5mC]*dA*kT*kA*kT) [compound 799927]    % Inhibition        0
2  798781 (CGTAAGATTCACAGCA; 3-10-3 cEt gapmer, further chemistry not given here) [compound 798781]    % Inhibition       52

Record request: % Inhibition value, item 799260 (antisense kT*kT*kG*d[5mC]*d[5mC]*d[5mC]*d[5mC]*dA*dA*dA*dA*d[5mC]*dT*k[5mC]*k[5mC]*kA) [compound 799260]
27

Record request: % Inhibition value, item 799925 (antisense k[5mC]*k[5mC]*kA*dA*dG*d[5mC]*d[5mC]*dT*dA*d[5mC]*dA*dT*dA*kT*kT*kT) [compound 799925]
10

Record request: % Inhibition value, item 830018 (antisense k[5mC]*k[5mC]*k[5mC]*dA*dA*d[5mC]*dA*dG*d[5mC]*d[5mC]*dA*dA*dA*kA*k[5mC]*kG) [compound 830018]
10

###

Tested on: human SMAD7 mRNA
TEST PROTOCOL: Antisense inhibition of human SMAD7 mRNA expression in Hep3B cells by 3-10-3 cEt gapmers, 10,000 nM, electroporation (Example 2)
Assay type: cell-based
CONDITION SUMMARY: SMAD7 mRNA, Hep3B cells, electroporation with 10,000 nM antisense oligonucleotide, approximately 24 hours, primer probe set RTS5062, relative to untreated control cells
Strand notation (5' to 3'): a small letter for the sugar, then the base; units joined by * are phosphorothioate-linked, units joined directly phosphodiester-linked; [ ] holds rarer units or linkages, { } end groups; capitals alone tell only the bases. k = constrained ethyl (cEt); [5mC] = 5-methylcytosine; d = 2'-deoxy (DNA)
PROPERTY LABEL: % Inhibition (%)
Form entry: value (%) — number only.

                                  substance  reading
0  829840 (kG*kG*kA*d[5mC]*dA*d[5mC]*dA*dG*dT*dA*dG*dA*dG*k[5mC]*k[5mC]*kT; antisense) [compound 829840]        0
1  829929 (kA*k[5mC]*k[5mC]*dA*dA*dT*d[5mC]*dT*dT*dG*dT*dG*dT*kT*kT*kA; antisense) [compound 829929]       19
2  829995 (kT*kG*kG*dA*dG*dG*d[5mC]*dA*dG*dG*dG*d[5mC]*d[5mC]*kG*k[5mC]*kG; antisense) [compound 829995]       78

Record request: % Inhibition value, item 829839 (kA*k[5mC]*kA*d[5mC]*dA*dG*dT*dA*dG*dA*dG*d[5mC]*d[5mC]*kT*k[5mC]*k[5mC]; antisense) [compound 829839]
8

Record request: % Inhibition value, item 829955 (k[5mC]*kT*kT*dG*dT*d[5mC]*dA*d[5mC]*d[5mC]*d[5mC]*dG*dT*d[5mC]*kT*kG*kG; antisense) [compound 829955]
52

Record request: % Inhibition value, item 829855 (antisense kA*kG*k[5mC]*dT*dG*dA*d[5mC]*dT*d[5mC]*dT*dT*dG*dT*kT*kG*kT) [compound 829855]
0

Record request: % Inhibition value, item 829916 (antisense kG*kA*kA*dG*dA*dG*dT*dT*dA*dG*dG*dT*dG*kT*k[5mC]*kA) [compound 829916]
33

Record request: % Inhibition value, item 829897 (antisense kG*k[5mC]*kG*dG*dG*dT*dG*dT*dA*dG*d[5mC]*dA*d[5mC]*kT*kG*kG) [compound 829897]
40

Record request: % Inhibition value, item 829961 (kT*kG*kA*dT*dT*dA*dT*dT*dA*dA*dT*dG*dG*kT*k[5mC]*kT; antisense) [compound 829961]
14

Record request: % Inhibition value, item 829891 (antisense kA*kT*k[5mC]*dT*dG*d[5mC]*dA*d[5mC]*dG*dG*dT*dA*dA*kA*kG*k[5mC]) [compound 829891]
25

Record request: % Inhibition value, item 829933 (kG*kT*kG*dA*dT*dA*dA*d[5mC]*dA*d[5mC]*d[5mC]*d[5mC]*dA*kT*kA*kG; antisense) [compound 829933]
38

Record request: % Inhibition value, item 829928 (k[5mC]*kA*k[5mC]*dT*dA*d[5mC]*dA*dA*dT*dG*d[5mC]*dT*dA*kA*kA*kT; antisense) [compound 829928]
26

Record request: % Inhibition value, item 829853 (antisense kA*k[5mC]*kT*d[5mC]*dT*dT*dG*dT*dT*dG*dT*d[5mC]*d[5mC]*kG*kA*kA) [compound 829853]
42

###

System: human SMAD7 mRNA
TEST PROTOCOL: Antisense inhibition of human SMAD7 mRNA expression in Hep3B cells by 3-10-3 cEt gapmers, 10,000 nM, electroporation (Example 2)
Type: cell-based
CONDITION SUMMARY: Hep3B cells, electroporation with 10,000 nM antisense oligonucleotide, approximately 24 hours, SMAD7 mRNA by RT-PCR (RTS5062), relative to untreated control cells
Strand notation (5' to 3'): a small letter for the sugar, then the base; units joined by * are phosphorothioate-linked, units joined directly phosphodiester-linked; [ ] holds rarer units or linkages, { } end groups; capitals alone tell only the bases. k = constrained ethyl (cEt); [5mC] = 5-methylcytosine; d = 2'-deoxy (DNA)
% Inhibition below 50% gives 0 (no); % Inhibition at or above it gives 1 (yes).

Is the recorded value of % Inhibition equal to or greater than 50% for this substance? 799450 (antisense kA*kA*kG*dA*dA*d[5mC]*dA*d[5mC]*dA*dG*d[5mC]*dA*d[5mC]*kT*kG*k[5mC]) [compound 799450]
1 (yes)

Is the recorded value of % Inhibition equal to or greater than 50% for this substance? 798865 (kG*kG*kA*dG*dT*d[5mC]*d[5mC]*dG*dG*dG*dT*dT*dG*kT*k[5mC]*k[5mC]; antisense) [compound 798865]
0 (no)

Is the recorded value of % Inhibition equal to or greater than 50% for this substance? 798834 (kA*kA*kA*dA*dG*d[5mC]*d[5mC]*dA*dT*dT*d[5mC]*d[5mC]*d[5mC]*k[5mC]*kT*kG; antisense) [compound 798834]
1 (yes)

Is the recorded value of % Inhibition equal to or greater than 50% for this substance? 798694 (antisense kG*kT*k[5mC]*d[5mC]*dT*d[5mC]*dG*d[5mC]*d[5mC]*dG*d[5mC]*d[5mC]*dG*kG*kG*k[5mC]) [compound 798694]
0 (no)

Is the recorded value of % Inhibition equal to or greater than 50% for this substance? 830083 (kA*kT*kG*dG*dT*dG*dT*dA*dT*dA*d[5mC]*d[5mC]*d[5mC]*kT*kG*k[5mC]; antisense) [compound 830083]
1 (yes)

Is the recorded value of % Inhibition equal to or greater than 50% for this substance? 830208 (kA*kA*kG*dG*dT*dG*dA*d[5mC]*dT*d[5mC]*dA*dT*d[5mC]*kA*kG*kG; antisense) [compound 830208]
1 (yes)

###

Tested on: mouse Smad7 mRNA
TEST PROTOCOL: Murine Smad7 mRNA expression after oral administration in BALB/c mice (Example 11)
Type: in vivo
CONDITION SUMMARY: 500 mg/kg/day oral for 3 weeks, 24 hours after last dose, kidney
k = constrained ethyl (cEt); d = 2'-deoxy (DNA)
# Mouse Smad7 mRNA expression (% inhibition), Kidney per record follows
The answer consists of two parts: a number and, after it, its unit.

Record request: Mouse Smad7 mRNA expression (% inhibition), Kidney value, item 830025 (antisense TTTGTAAATCGAAAGC; 3-10-3 cEt gapmer, further chemistry not given here) [compound 830025]
31 % inhibition

Record request: Mouse Smad7 mRNA expression (% inhibition), Kidney value, item 798781 (CGTAAGATTCACAGCA; 3-10-3 cEt gapmer, further chemistry not given here) [compound 798781]
12 % inhibition

Record request: Mouse Smad7 mRNA expression (% inhibition), Kidney value, item 790615 (CCAATGAGAATGCTTC; 3-10-3 cEt gapmer, further chemistry not given here) [compound 790615]
41 % inhibition

Record request: Mouse Smad7 mRNA expression (% inhibition), Kidney value, item 772797 (AATGAACTGTATCTCC; sugars from the 5' end k3 d10 k3, all phosphorothioate, methylation of C not given here) [compound 772797]
0 % inhibition
